B1: Double-stranded RNA-binding protein Staufen homolog 1, residues 183 to 249; numbered along this chain, O95793 (parent)
chain: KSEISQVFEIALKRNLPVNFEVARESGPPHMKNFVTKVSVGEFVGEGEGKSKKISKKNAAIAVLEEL

# Variants of: B1
# protocol text: abundance fitness (aPCA) (normalised: wild type 0, dead -1); higher = more abundant; growth selection in yeast, the domain comes from the species named
# experimental setup: Homo sapiens
assay readout: abundance fitness
Kindly provide the number alone.

Worked set:
mutation_string=F34T recorded_result=-0.428
mutation_string=E48Q recorded_result=0.054

Value of measured abundance fitness for the entry A60C : -0.067

// recorded abundance fitness for K52F : -0.481

Entry F34E ; abundance fitness = -0.56

The variant S39C showed abundance fitness equal to -0.064

Per the record, M31N has abundance fitness of 0.083

The reported value for V35T in terms of abundance fitness is -0.02

The recorded abundance fitness for entry K37F equals -0.58

The reported value for I61A in terms of abundance fitness is 0.002

The variant listed as F20T shows abundance fitness equal to -0.395

Measured abundance fitness of V22K : 0.105

Entry V44T , abundance fitness reported as -0.015

Reported abundance fitness ( K13Q ) = -0.079

Per the records, this variant ( L64N ) has abundance fitness equal to -0.423

Briefly, abundance fitness measured for V44I : -0.04
